system: CD2F1 mice, L1210 leukemia ip, survival T/C; assay: NCI In Vivo Anticancer Drug Screen. Data for tumor model L1210 Leukemia (intraperitoneal) in CD2F1 (CDF1) mice; conditions: endpoint: mean survival time; dose: 400.0 mg/kg/injection; schedule: Q01DX009 (ip); vehicle: saline with Tween-80; higher = longer survival
Toxic doses and inconclusive results are not listed.
Let's look at some molecules and their measured T/C.

Observe how each entry below is paired with its result.
mol	test-value
O=[N+]([O-])c1ccc(-n2[nH]nnc2=S)cc1	93 % of control
CCOC(=O)c1sc(N)c(C(=O)OCC)c1C	91 % of control
O=C1C=C(CCc2ccccc2)CCC1	108 % of control

(Q) Identify the measured T/C of O=C(N/N=C/c1ccccc1O)c1ccccc1O for CD2F1 mice, L1210 leukemia ip, survival T/C.
(A) 93 % of control

(Q) State its T/C on CD2F1 mice, L1210 leukemia ip, survival T/C: NC(=O)Cn1cnnn1
(A) 98 % of control

---

tested on: CD2F1 mice, L1210 leukemia ip, survival T/C; experiment: NCI In Vivo Anticancer Drug Screen. Data for tumor model L1210 Leukemia (intraperitoneal) in CD2F1 (CDF1) mice; conditions: endpoint: mean survival time; dose: 50.0 mg/kg/injection; schedule: Q01DX009 (ip); vehicle: saline with Tween-80; higher = longer survival
Toxic doses and inconclusive results are not listed.
experimental-readout: T/C

Known T/C results, listed for orientation:
mol	test-value
C=CCNC(=O)C[n+]1cccc(C(=O)Nc2ccc(Cl)cc2)c1	96 % of control
NC(=S)c1cccc(OCCOc2cccc3ccccc23)c1	95 % of control
CC(C)C(=O)[O][Sn]([CH2]c1ccccc1)([CH2]c1ccccc1)[CH2]c1ccccc1	95 % of control

# input for lookup
(Q) // T/C lookup, key: CS(=O)(=O)OCCCOS(C)(=O)=O
(A) 116 % of control

---

This listing pairs compounds with measured T/C.
system: CD2F1 mice, L1210 leukemia ip, survival T/C; test: NCI In Vivo Anticancer Drug Screen. Data for tumor model L1210 Leukemia (intraperitoneal) in CD2F1 (CDF1) mice; settings: endpoint: mean survival time; dose: 100.0 mg/kg/injection; schedule: Q04DX003 (ip); vehicle: saline with Tween-80; higher = longer survival
Toxic doses and inconclusive results are not listed.

Some solved entries appear below for comparison.
compound	T/C
CC1(C)N=C(N)N=C(N)N1c1cccc(/C=C/C=C/c2cccc([N+](=O)[O-])c2)c1	89 % of control
c1ccc2c3c([nH]c2c1)CCCCC3	92 % of control

(Q) State its T/C on CD2F1 mice, L1210 leukemia ip, survival T/C: Nc1ccccc1N=Cc1cccc([N+](=O)[O-])c1
(A) 101 % of control

(Q) Request - read-out T/C | tested on CD2F1 mice, L1210 leukemia ip, survival T/C | compound Cc1c(Cl)cccc1NC(=O)COc1ccc(Cl)cc1Cl
(A) 94 % of control

(Q) Which T/C is reported with CD2F1 mice, L1210 leukemia ip, survival T/C for this entry: O=C1OC(c2ccccc2)(c2ccccn2)c2ccccc21 (centres undefined) ?
(A) 90 % of control

(Q) Record CC1(C)C(CC(=O)O)CC1C(=O)O (centres undefined) : what is its T/C with CD2F1 mice, L1210 leukemia ip, survival T/C?
(A) 100 % of control

(Q) # query: T/C | item COc1ccc([N+](=O)[O-])cc1Br | system: CD2F1 mice, L1210 leukemia ip, survival T/C
(A) 100 % of control

(Q) Observed T/C on CD2F1 mice, L1210 leukemia ip, survival T/C for Cc1cc(C)[nH]c(=S)n1.[Pt] , please.
(A) 101 % of control

(Q) What is its T/C for CD2F1 mice, L1210 leukemia ip, survival T/C? Entry: CC1=Nc2cc(Cl)c(Cl)cc2N(C)/C1=C/C1=C(Cl)C(=O)c2cc3c(Cl)ccc(Cl)c3cc2C1=O
(A) 94 % of control

(Q) Param readout = T/C; param system = CD2F1 mice, L1210 leukemia ip, survival T/C; param query = O=C1OC(c2ccccc2)(c2ccccc2)c2ccc3ccccc3c21 ; response: value
(A) 96 % of control

(Q) API: value(readout= T/C, system= CD2F1 mice, L1210 leukemia ip, survival T/C, query= c1ccc2c(c1)CCCN2 )
(A) 102 % of control

(Q) Test system CD2F1 mice, L1210 leukemia ip, survival T/C; read-out T/C; what value for CCCCCC(/C=N\N=C\c1ccco1)=C\c1ccccc1 ?
(A) 93 % of control

(Q) Please provide the recorded T/C for O=c1[nH]c2ccc(I)cc2c(=O)o1 , tested on CD2F1 mice, L1210 leukemia ip, survival T/C.
(A) 101 % of control

(Q) Record CC(=O)Nc1ccc(Br)c(NC(C)=O)n1 : what is its T/C with CD2F1 mice, L1210 leukemia ip, survival T/C?
(A) 95 % of control

---

test system: CD2F1 mice, L1210 leukemia ip, survival T/C; test: NCI In Vivo Anticancer Drug Screen. Data for tumor model L1210 Leukemia (intraperitoneal) in CD2F1 (CDF1) mice; conditions: endpoint: mean survival time; dose: 200.0 mg/kg/injection; schedule: Q04DX002 (ip); vehicle: saline with Tween-80; higher = longer survival
Inconclusive results and toxic doses are left out.
experimental-readout: T/C

compound	T/C
O=C(COc1ccc(F)cc1F)OC(=O)COc1ccc(F)cc1F	89 % of control

(Q) # input compound: C#CC(CC)OC(=O)c1cc([N+](=O)[O-])cc([N+](=O)[O-])c1 (stereo not drawn) ; wanted: its T/C
(A) 93 % of control

(Q) Given the compound CCCCCCCCCCCCCCCC1CCCC(C)N1 (stereo not drawn) , what is its reported T/C?
(A) 87 % of control

(Q) Tell me the measured T/C of CCCCCCCS(=O)CCCl (stereo not drawn) , please.
(A) 108 % of control

(Q) T/C lookup needed for Cc1c(Cl)cccc1NC(=O)/C=C/c1ccccc1 , thanks.
(A) 102 % of control

(Q) Report T/C for c1cncc(-c2nnc(-c3cccnc3)o2)c1 please.
(A) 87 % of control

(Q) Tell me the measured T/C of O=C1Nc2ccccc2C1c1ccccc1 (stereo not drawn) , please.
(A) 90 % of control

(Q) Fill in the blank: the reported T/C of CCCCCCCC/C=C\CCCCCCCC(=O)OCCCCCC is ____.
(A) 102 % of control

---

tested on: CD2F1 mice, L1210 leukemia ip, survival T/C; assay: NCI In Vivo Anticancer Drug Screen. Data for tumor model L1210 Leukemia (intraperitoneal) in CD2F1 (CDF1) mice; details: endpoint: mean survival time; dose: 200.0 mg/kg/injection; schedule: Q01DX009 (ip); vehicle: saline; higher = longer survival
Toxic doses and inconclusive results are not listed.
In this section, each of the compounds is paired with its reported T/C.

compound	T/C
CCOC(=O)/C(N=O)=C(/C)O	101 % of control

(Q) What measured T/C goes with CC1(C)CC(=O)NC1=O ?
(A) 102 % of control

(Q) Quick one: T/C for CCOC(=O)c1cc(Cl)cc(Cl)c1N=NN(C)C ?
(A) 97 % of control

(Q) Query: T/C; subject: CN1CCC(CO)C1 (centres undefined)
(A) 101 % of control

---

system: CD2F1 mice, L1210 leukemia ip, survival T/C; test: NCI In Vivo Anticancer Drug Screen. Data for tumor model L1210 Leukemia (intraperitoneal) in CD2F1 (CDF1) mice; conditions: endpoint: mean survival time; dose: 100.0 mg/kg/injection; schedule: Q04DX003 (ip); vehicle: saline with Tween-80; higher = longer survival
Toxic doses and inconclusive results are not listed.
experimental-readout: T/C

compound	experimental-readout	test-value
CCOC(=O)/C=C/C(C(=O)OCC)C(=O)OCC	T/C	103 % of control

(Q) Form field: reported T/C of CC(=O)N1CCN(C(C)=O)c2ccccc21
(A) 101 % of control

(Q) Report T/C for Cc1cc(C)c(NC(=O)c2cccc(Cl)c2)c(C)c1 please.
(A) 94 % of control

(Q) Any idea what T/C was measured for NNC(=O)c1cc(NN)ccn1 ?
(A) 100 % of control

(Q) Requested field: T/C. Item: O=[N+]([O-])c1ccc(C(O)(c2ccc([N+](=O)[O-])cc2)c2ccc([N+](=O)[O-])cc2)cc1
(A) 98 % of control

(Q) Give the measured T/C of CC(C)C(NC(=O)OC(C)(C)C)C(=O)ON1C(=O)CCC1=O (centres undefined) .
(A) 104 % of control

(Q) Give its T/C value. Item: NC(=O)Cn1cnnn1
(A) 101 % of control

(Q) Give its T/C value. Item: Cc1cc2oc(=O)cc(N3CCOCC3)c2c(=O)o1
(A) 110 % of control

(Q) Dear colleague, I am looking for the recorded T/C of the following compound: C=C(C)CN=C=S
(A) 98 % of control

(Q) Need T/C of COc1ccc([Se][Se]c2ccc(OC)cc2NC(C)=O)c(NC(C)=O)c1 , thanks.
(A) 89 % of control

(Q) For the compound NC(=O)c1c(F)cccc1Cl , what T/C is on record?
(A) 101 % of control

(Q) Which T/C value is on record for CCCC/C=C/C(O)CC (centres undefined) ?
(A) 98 % of control

(Q) I would be grateful if you could share the reported T/C for CC(=O)Nc1ccc2ccccc2c1-c1c(NC(C)=O)ccc2ccccc12 .
(A) 87 % of control

(Q) Bench note: what T/C did O=C1C(=C(C(F)(F)F)C(F)(F)F)CCc2ccc([N+](=O)[O-])cc21 show?
(A) 114 % of control

# credit: PubChem BioAssay AID256
